Recorded values, source patent EP2047849A1.

Molecular target: Aurora B (Homo sapiens, UniProt Q96GD4)
Sequence (Q96GD4 whole entry): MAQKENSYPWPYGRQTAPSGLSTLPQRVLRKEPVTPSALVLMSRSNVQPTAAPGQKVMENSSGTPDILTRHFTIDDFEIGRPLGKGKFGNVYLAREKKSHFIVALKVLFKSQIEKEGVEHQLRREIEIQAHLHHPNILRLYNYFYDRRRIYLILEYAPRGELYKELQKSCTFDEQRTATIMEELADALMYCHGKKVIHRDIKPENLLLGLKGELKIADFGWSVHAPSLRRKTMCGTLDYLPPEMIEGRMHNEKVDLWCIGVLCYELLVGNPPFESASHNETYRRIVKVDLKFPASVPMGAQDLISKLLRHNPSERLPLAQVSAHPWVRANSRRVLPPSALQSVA
Assay: 33PanQinase Activity Assay (in vitro protein kinase activity assay)
Conditions: recombinant purified kinase, 1 µM [γ-33P]-ATP
pIC50: −log10 of the molar value.
attributeMeasured: pIC50

[[record]]
cpdsmiles = "COc1ccc2[nH]c3c(c4c(c5c6cc(OC)ccc6n(C)c35)C(=O)NC4=O)c2c1"
result = 6.68


###

Molecular target: FLT3 D835Y (Homo sapiens, UniProt P36888, D835Y)
Construct: made in house; host or cells: Sf9 insect cells (baculovirus)
Test: 33PanQinase Activity Assay (in vitro protein kinase activity assay)
Type: biochemical
Settings: recombinant purified kinase, 1 µM [γ-33P]-ATP
attributeMeasured: IC50

[[record]]
compound = "CN(C)CCCn1c2ccc(O)cc2c2c3c(c4c5cc(O)ccc5n(C)c4c21)C(=O)NC3=O"
targetdesc = "FLT3 D835Y (Homo sapiens, UniProt P36888, D835Y)"
attributemeasured = "IC50"
result = "< 3 nM"

[[record]]
compound = "COc1ccc2c(c1)c1c3c(c4c5ccccc5n(C)c4c1n2CCC#N)C(=O)NC3=O"
targetdesc = "FLT3 D835Y (Homo sapiens, UniProt P36888, D835Y)"
attributemeasured = "IC50"
result = "3.5 nM"

[[record]]
compound = "CN(C)CC(O)Cn1c2ccc(O)cc2c2c3c(c4c5cc(O)ccc5n(C)c4c21)C(=O)NC3=O (racemic)"
targetdesc = "FLT3 D835Y (Homo sapiens, UniProt P36888, D835Y)"
attributemeasured = "IC50"
result = "64 nM"

[[record]]
compound = "COc1ccc2[nH]c3c(c4c(c5c6cc(OC)ccc6n(C)c35)C(=O)NC4=O)c2c1"
targetdesc = "FLT3 D835Y (Homo sapiens, UniProt P36888, D835Y)"
attributemeasured = "IC50"
result = "< 3 nM"

[[record]]
compound = "NC(=O)CCn1c2ccccc2c2c3c(c4c5ccccc5[nH]c4c21)C(=O)NC3=O"
targetdesc = "FLT3 D835Y (Homo sapiens, UniProt P36888, D835Y)"
attributemeasured = "IC50"
result = "3.9 nM"

[[record]]
compound = "Cn1c2ccccc2c2c3c(c4c5ccccc5[nH]c4c21)C(=O)NC3=O"
targetdesc = "FLT3 D835Y (Homo sapiens, UniProt P36888, D835Y)"
attributemeasured = "IC50"
result = "68 nM"

